Where do the numbers come from? From the supplement of paper PMC12494721.

Recorded fold change of Cadaverine concentration by entry
# Test system: Klebsiella aerogenes DSM 30053
# MEASUREMENT_DESCRIPTION: fold change of Cadaverine concentration vs plate DMSO controls (fold change (ratio)); higher = more amine produced, active = hit call of the paper (significant change in both replicates, either direction)
# DETAILS: incubation time: 27 h, anaerobic, 37 °C
Counter-ions that a name gives are not always drawn.
Enter a number only.

See these solved cases before continuing.
C#Cc1cccc(Nc2ncnc3cc(OCCOC)c(OCCOC)cc23)c1 [Erlotinib] (20 µM)
1.01
COc1cccc(OC)c1C(=O)N[C@@H]1C(=O)N2[C@@H]1SC(C)(C)[C@@H]2C(=O)O [Methicillin sodium] (20 µM)
0.969
CCOc1ccccc1OCCN[C@H](C)Cc1ccc(OC)c(S(N)(=O)=O)c1 [(R)-Tamsulosin hydrochloride] (20 µM)
1

Problem: Give the observed fold change of Cadaverine concentration of CC(CCc1ccccc1)NCC(O)c1ccc(O)c(C(N)=O)c1 (stereo unspecified) [Labetalol hydrochloride] (20 µM) for Klebsiella aerogenes DSM 30053.
Result: 1

Problem: Give the observed fold change of Cadaverine concentration of CN1CCCN(C(c2ccccc2)c2ccc(Cl)cc2)CC1 (stereo unspecified) [Homochlorcyclizine dihydrochloride] (20 µM) for Klebsiella aerogenes DSM 30053.
Result: 1.01

Problem: Give the observed fold change of Cadaverine concentration of CC(=O)N[C@H]1[C@H]([C@H](O)[C@H](O)CO)OC(C(=O)O)=C[C@@H]1NC(=N)N [Zanamivir] (20 µM) for Klebsiella aerogenes DSM 30053.
Result: 0.991

Problem: Give the observed fold change of Cadaverine concentration of COC(=O)[C@H](Cc1ccccc1)NC(=O)[C@H](CC(=O)O)NCCCc1ccc(OC)c(O)c1 [Advantame] (50 µM) for Klebsiella aerogenes DSM 30053.
Result: 0.996

Problem: Give the observed fold change of Cadaverine concentration of CCCCC(=O)N(Cc1ccc(-c2ccccc2-c2nnn[nH]2)cc1)[C@H](C(=O)O)C(C)C [Valsartan] (20 µM) for Klebsiella aerogenes DSM 30053.
Result: 1.05

Problem: Give the observed fold change of Cadaverine concentration of CO[C@@]1(NC(=O)Cc2cccs2)C(=O)N2C(C(=O)O)=C(COC(N)=O)CS[C@@H]21 [Cefoxitin sodium salt] (20 µM) for Klebsiella aerogenes DSM 30053.
Result: 1.11

Problem: Give the observed fold change of Cadaverine concentration of CN(Cc1cc(Br)cc(Br)c1N)C1CCCCC1 [Bromhexine hydrochloride] (20 µM) for Klebsiella aerogenes DSM 30053.
Result: 0.991

Problem: Give the observed fold change of Cadaverine concentration of CCn1cc(C(=O)O)c(=O)c2ccc(C)nc21 [Nalidixic acid sodium salt] (20 µM) for Klebsiella aerogenes DSM 30053.
Result: 0.966

Problem: Give the observed fold change of Cadaverine concentration of Nc1nc(Cl)nc2c1ncn2[C@H]1C[C@H](O)[C@@H](CO)O1 [Cladribine] (20 µM) for Klebsiella aerogenes DSM 30053.
Result: 1.02

Problem: Give the observed fold change of Cadaverine concentration of CN1CCC[C@@H]1CCO[C@](C)(c1ccccc1)c1ccc(Cl)cc1 [Clemastine fumarate] (20 µM) for Klebsiella aerogenes DSM 30053.
Result: 1.03

Problem: Give the observed fold change of Cadaverine concentration of Nc1nc2n[nH]nc2c(=O)[nH]1 [Azaguanine-8] (20 µM) for Klebsiella aerogenes DSM 30053.
Result: 1.03
